Data provenance is ChEMBL document CHEMBL1129258.

Target: DNA gyrase (Escherichia coli) (UniProt P0AES6+P0AES4)
Assay: In vitro antibacterial against gram-negative organism Escherichia coli JUHL
Type: functional
Settings: Escherichia coli K-12
Can you tell me MIC for the items I'm about to list?
Response body: numeric value in µg/mL, unit text excluded.

Query: Dear colleague, I am looking for the recorded MIC of the following molecule: Cc1c(N2CCC(c3ccccn3)C2)c(F)cn2c(=O)c(C(=O)O)cc(C3CC3)c12 (centres undefined)
Response: 0.05

Query: Thanks! And Cc1c(N2CC[C@@]3(C[C@@H]3N)C2)c(F)cn2c(=O)c(C(=O)O)cc(C3CC3)c12 ?
Response: 0.01

Query: Consider next the molecule CN1CCN(c2nc3c(-c4ccc(F)cc4)cc(C(=O)O)c(=O)n3cc2F)CC1 in the same way.
Response: 0.39

Query: Follow-up item: Cc1c(N2C[C@@H](N)C[C@H]2C)c(F)cn2c(=O)c(C(=O)O)cc(C3CC3)c12
Response: 0.1

Query: And then Cc1c(N2CCC(N(C)C)C2)c(F)cn2c(=O)c(C(=O)O)cc(C3CC3)c12 (centres undefined) , what is it?
Response: 0.02

Query: Field entry: Cc1c(N2CC[C@@H]3CNC[C@@H]32)c(F)cn2c(=O)c(C(=O)O)cc(C3CC3)c12
Response: 0.001

Query: Try Cc1c(N2CCCNCC2)c(F)cn2c(=O)c(C(=O)O)cc(C3CC3)c12 next.
Response: 0.02

Query: # iterate: Cc1c(N2CC[C@@H](O)C2)c(F)cn2c(=O)c(C(=O)O)cc(C3CC3)c12
Response: 0.1

Query: Repeat with O=C(O)c1cc(C2CC2)c2cc(N3CCNCC3)c(F)cn2c1=O
Response: 0.01
